- METHOD NOTES: Inhibition of tubulin assembly
pIC50: −log10 of the molar value.

>  <MOLECULE>
CC[C@]1(O)C[C@@H]2CN(CCc3c([nH]c4ccccc34)[C@@](C(=O)OC)(c3cc4c(cc3OC)N(C)[C@H]3[C@@](O)(C(=O)OC)[C@H](OC(C)=O)[C@]5(CC)C=CCN6CC[C@]43[C@@H]65)C2)C1

>  <pIC50>
5.40

$$$$
>  <MOLECULE>
COc1ccc(-c2oc3cc(O)c(OC)c(O)c3c(=O)c2OC)cc1O

>  <pIC50>
5.52

$$$$
>  <MOLECULE>
COc1ccc(-c2oc3c(OC)c(OC)c(OC)c(O)c3c(=O)c2OC)cc1O

>  <pIC50>
4.92

$$$$
